normalised viability values by entry
# Test system: MDA-MB-453
# Method: normalised viability (% of control), CellTiter-Blue; higher = more viable cells (100 = DMSO, 0 = benzethonium chloride kill control)
# Applied conditions: incubation time: 72 h
Test readout: normalised viability (%)

> print(dat)
                                    compound  observed.result
 1  C[C@]12CC[C@@H]3c4ccc(OC(=O)N(CCCl)CCCl)cc4CC[C@H]3[C@@H]1CC[C@@H]2O [Estramustine] (0.099 nM)             98.9
 2  CC(=O)c1c(C)c2cnc(Nc3ccc(N4CCNCC4)cn3)nc2n(C2CCCC2)c1=O (1 nM)              106
 3  Cc1sc2c(c1C)C(c1ccc(Cl)cc1)=N[C@@H](CC(=O)OC(C)(C)C)c1nnc(C)n1-2 [(+)JQ1] (1 nM)              177
 4  CC(C)(C)c1cnc(CSc2cnc(NC(=O)C3CCNCC3)s2)o1 [SNS-032] (1 nM)              103
 5  CC1=C2C[C@H]3[C@@H](CC=C4C[C@@H](O)CC[C@@]43C)[C@@H]2CC[C@]12O[C@@H]1C[C@H](C)CN[C@H]1[C@H]2C [Cyclopamine] (1 nM)              102
 6  C[C@]1(O)C[C@@H](c2nc(-c3ccc4ccc(-c5ccccc5)nc4c3)c3c(N)nccn32)C1 [OSI-906] (1 nM)             85.7
 7  COc1cc2c(cc1O)CC[C@@H]1[C@@H]2CC[C@]2(C)[C@@H](O)CC[C@@H]12 [2-methoxyestradiol] (1 nM)             95.5
 8  O=NN(CCCl)C(=O)NCCCl [Carmustine] (1 nM)              108
 9  Nc1nc2[nH]cnc2c(=S)[nH]1 [Thioguanine] (1 nM)              104
10  CC[C@@H]1C(=O)OC[C@@H]1Cc1cncn1C [Pilocarpine] (4 nM)             99.1

----------
# Test system: MDA-MB-231
# Method: normalised response (% of control), CellTiter-Glo; higher = more viable cells (100 = DMSO, 0 = benzethonium chloride kill control)
# Applied conditions: incubation time: 72 h

Compound	U	normalised response
CC1(C)CCC(CN2CCN(c3ccc(C(=O)NS(=O)(=O)c4ccc(NCC5CCOCC5)c([N+](=O)[O-])c4)c(Oc4cnc5[nH]ccc5c4)c3)CC2)=C(c2ccc(Cl)cc2)C1 [ABT-199] (10 nM)	%	97.2
COc1cc2c(cc1O)CC[C@@H]1[C@@H]2CC[C@]2(C)[C@@H](O)CC[C@@H]12 [2-methoxyestradiol] (1000 nM)	%	73.9
C[C@]12CC[C@@H]3c4ccc(OC(=O)N(CCCl)CCCl)cc4CC[C@H]3[C@@H]1CC[C@@H]2O [Estramustine] (10 nM)	%	95.1

----------
# System: HDQ-P1
# Method: normalised viability (% of control), CellTiter-Blue; higher = more viable cells (about 100 = DMSO control)
# Applied conditions: 100 nM; incubation time: 72 h
Test readout: normalised viability (%)

> print(dat)
                                   compound  observed.result
1  COc1cc(F)c(F)c(Nc2ccc(I)cc2F)c1NS(=O)(=O)C1(C[C@H](O)CO)CC1              110
2  CC1=C2C[C@H]3[C@@H](CC=C4C[C@@H](O)CC[C@@]43C)[C@@H]2CC[C@]12O[C@@H]1C[C@H](C)CN[C@H]1[C@H]2C              114
3          O=P(O)(O)C(O)(Cn1ccnc1)P(=O)(O)O             84.1
4  CC(C)(C)c1cnc(CSc2cnc(NC(=O)C3CCNCC3)s2)o1               63
5  Cn1cc(C2=Nc3cc(NC(=O)C(N)C4CCCCC4)cc4c3C2=CNNC4=O)cn1 (stereo unspecified)              106
6  CC(=O)c1c(C)c2cnc(Nc3ccc(N4CCNCC4)cn3)nc2n(C2CCCC2)c1=O             99.5
